Test system: Polygonum humifusum
Test: Post-emergence herbicidal activity against Polygonum humifusum assessed as growth inhibition at 150 g ai/ha measured 15 days post compound treatment under green house conditions
Assay type: functional
Conditions: 360 h, read-out: GI
value_kind: inhibition of growth at 150 g/ha

INSERT INTO measurements (item_smiles, endpoint_value) VALUES
  ('Cc1nc(C(F)(F)F)cc2nc(S(=O)(=O)Nc3c(F)cccc3F)nn12', '50%'),
  ('Cc1ccn2nc(S(=O)(=O)Nc3c(F)cccc3F)nc2n1', '≥ 90%'),
  ('COC(=O)c1cccc(Cl)c1NS(=O)(=O)c1nc2nc(OC)ccn2n1', '50%'),
  ('COC(=O)c1cccc(Cl)c1NS(=O)(=O)c1nc2c(Cl)c(C)nc(C)n2n1', '50%'),
  ('Cc1nc(C(F)(F)F)cc2nc(S(=O)(=O)Nc3c(Cl)cccc3Cl)nn12', '≥ 80%'),
  ('COc1ccn2nc(S(=O)(=O)Nc3cccc(Cl)c3Cl)nc2n1', '50%');

---

Test system: Polygonum humifusum
Assay: Post-emergence herbicidal activity against Polygonum humifusum assessed as growth inhibition at 75 g ai/ha measured 15 days post compound treatment under green house conditions
Format: functional
Conditions: 360 h, read-out: GI
inhibition of growth at 75 g/ha by entry:
value_kind: inhibition of growth at 75 g/ha (%)

INSERT INTO measurements (item_smiles, target_under_test, value_kind, result_unit, inequality_operator, endpoint_value) VALUES
  ('COC(=O)c1cccc(Cl)c1NS(=O)(=O)c1nc2nc(OC)ccn2n1', 'Polygonum humifusum', 'inhibition of growth at 75 g/ha', '%', '=', 50),
  ('COc1ccn2nc(S(=O)(=O)Nc3cccc(Cl)c3Cl)nc2n1', 'Polygonum humifusum', 'inhibition of growth at 75 g/ha', '%', '=', 50),
  ('Cc1nc(C(F)(F)F)cc2nc(S(=O)(=O)Nc3c(F)cccc3F)nn12', 'Polygonum humifusum', 'inhibition of growth at 75 g/ha', '%', '<', 50),
  ('Cc1ccn2nc(S(=O)(=O)Nc3c(F)cccc3F)nc2n1', 'Polygonum humifusum', 'inhibition of growth at 75 g/ha', '%', '≥', 90),
  ('Cc1nc(C(F)(F)F)cc2nc(S(=O)(=O)Nc3c(Cl)cccc3Cl)nn12', 'Polygonum humifusum', 'inhibition of growth at 75 g/ha', '%', '≥', 80),
  ('COC(=O)c1cccc(Cl)c1NS(=O)(=O)c1nc2c(Cl)c(C)nc(C)n2n1', 'Polygonum humifusum', 'inhibition of growth at 75 g/ha', '%', '=', 50);
